EXPERIMENTAL SYSTEM: ErbB4 (Homo sapiens)
Sequence (Q15303 26-1308, species assumed): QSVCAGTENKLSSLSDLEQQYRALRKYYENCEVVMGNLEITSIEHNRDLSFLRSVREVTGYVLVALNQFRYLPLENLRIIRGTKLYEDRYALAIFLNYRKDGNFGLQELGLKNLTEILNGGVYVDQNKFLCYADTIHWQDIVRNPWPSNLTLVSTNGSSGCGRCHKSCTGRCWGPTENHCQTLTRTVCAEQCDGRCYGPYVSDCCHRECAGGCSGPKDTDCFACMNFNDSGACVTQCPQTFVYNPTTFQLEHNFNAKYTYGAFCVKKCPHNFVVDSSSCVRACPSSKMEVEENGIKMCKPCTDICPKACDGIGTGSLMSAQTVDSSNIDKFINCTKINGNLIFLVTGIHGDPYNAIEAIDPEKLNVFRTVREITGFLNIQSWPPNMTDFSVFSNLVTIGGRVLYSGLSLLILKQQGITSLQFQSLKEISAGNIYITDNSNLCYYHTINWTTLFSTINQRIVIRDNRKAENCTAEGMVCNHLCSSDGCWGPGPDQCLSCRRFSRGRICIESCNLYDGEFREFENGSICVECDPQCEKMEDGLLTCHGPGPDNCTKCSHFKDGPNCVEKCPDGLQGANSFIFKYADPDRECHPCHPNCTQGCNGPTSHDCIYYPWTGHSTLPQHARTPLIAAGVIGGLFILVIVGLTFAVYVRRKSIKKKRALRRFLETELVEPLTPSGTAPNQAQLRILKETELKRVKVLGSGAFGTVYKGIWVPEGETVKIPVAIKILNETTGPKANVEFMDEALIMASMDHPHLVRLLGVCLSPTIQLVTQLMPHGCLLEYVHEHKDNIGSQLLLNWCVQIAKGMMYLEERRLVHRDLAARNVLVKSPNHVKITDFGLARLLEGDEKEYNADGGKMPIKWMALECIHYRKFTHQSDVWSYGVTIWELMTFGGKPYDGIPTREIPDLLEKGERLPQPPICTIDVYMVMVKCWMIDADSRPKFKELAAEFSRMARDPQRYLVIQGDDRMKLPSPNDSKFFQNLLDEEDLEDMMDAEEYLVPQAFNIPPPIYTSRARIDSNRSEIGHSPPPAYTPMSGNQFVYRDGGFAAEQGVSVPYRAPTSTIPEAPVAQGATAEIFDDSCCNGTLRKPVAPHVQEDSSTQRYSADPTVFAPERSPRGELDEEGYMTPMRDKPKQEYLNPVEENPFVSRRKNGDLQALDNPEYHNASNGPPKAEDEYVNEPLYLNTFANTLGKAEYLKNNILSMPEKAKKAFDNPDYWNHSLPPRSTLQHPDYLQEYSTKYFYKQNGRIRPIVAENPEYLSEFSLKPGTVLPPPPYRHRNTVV
QUANTITY NAME: pIC50
Just the number, please; pIC50 means minus log10 of the concentration in mol/L.

(Q) # query: pIC50 of entry CS(=O)(=O)CCN(O)Cc1ccc(-c2ccc3ncnc(Nc4ccc(OCc5cccc(F)c5)c(Cl)c4)c3c2)o1
(A) 7.49

* * *

Ratio IC50:TD*** tested on CYP3A4 (Homo sapiens): recorded values
Sequence (P08684 whole entry): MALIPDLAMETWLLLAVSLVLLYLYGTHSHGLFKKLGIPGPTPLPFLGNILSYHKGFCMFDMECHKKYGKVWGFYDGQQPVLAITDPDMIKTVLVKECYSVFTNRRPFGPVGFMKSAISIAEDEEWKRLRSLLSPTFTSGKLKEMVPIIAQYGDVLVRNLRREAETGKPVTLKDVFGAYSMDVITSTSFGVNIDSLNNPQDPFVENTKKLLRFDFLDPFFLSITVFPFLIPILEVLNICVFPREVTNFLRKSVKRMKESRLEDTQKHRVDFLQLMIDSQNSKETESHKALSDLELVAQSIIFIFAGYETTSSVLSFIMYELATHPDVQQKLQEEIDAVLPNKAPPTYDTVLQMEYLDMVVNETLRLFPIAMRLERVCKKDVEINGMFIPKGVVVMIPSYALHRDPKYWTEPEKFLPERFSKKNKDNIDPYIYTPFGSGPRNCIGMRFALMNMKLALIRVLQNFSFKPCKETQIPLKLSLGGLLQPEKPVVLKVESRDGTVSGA

Some entries whose results are on file:
CS(=O)(=O)CCN(Cc1ccc(-c2ccc3ncnc(Nc4ccc(OCc5cccc(F)c5)c(Cl)c4)c3c2)o1)C1CCC1; +
COC(=O)ON(CCS(C)(=O)=O)Cc1ccc(-c2ccc3ncnc(Nc4ccc(OCc5cccc(F)c5)c(Cl)c4)c3c2)o1; ++
CS(=O)(=O)CCN(Cc1ccc(-c2ccc3ncnc(Nc4ccc(OCc5cccc(F)c5)c(Cl)c4)c3c2)o1)S(C)(=O)=O; ++
CS(=O)(=O)CCN(Cc1ccc(-c2ccc3ncnc(Nc4ccc(OCc5cccc(F)c5)c(Cl)c4)c3c2)o1)C1COC1; +++

Please examine the following record next.
(Q) Entry CS(=O)(=O)CCN(CC(=O)O)Cc1ccc(-c2ccc3ncnc(Nc4ccc(OCc5cccc(F)c5)c(Cl)c4)c3c2)o1 , system CYP3A4 (Homo sapiens): what Ratio IC50:TD*** was measured?
(A) +++
